System: L6-myotubes
protocolText: Glucose uptake in differentiated L6-myotubes (Biological Example 2)
Assay type: cell-based
assaySetup: glucose uptake in differentiated L6-myotubes; compound at 10 μM, activity relative to isoproterenol at 10 μM; read-out: Biological example 2 (GU)
Assign Emax at 10 µM to each entry below.

smilesCode | Emax at 10 µM
CC(=O)N[C@H]1CC[C@@H](CNC[C@H](O)c2cccc(F)c2)CC1 | 50 to 75%
CC(C)(C[C@H]1CC[C@@H](N)CC1)NC[C@H](O)c1cccc(C#N)n1 | 50 to 75%
CC1(C)C[C@@H]([C@H](O)c2cncc(F)c2)N1 | 25 to 50%
O[C@@H](CNC[C@H]1CC[C@@H](OCc2ccccc2)CC1)c1cccc(F)c1 | 25 to 50%

Count: 2. Required value per item: Emax at 10 µM.
1. CC(C)(NC[C@H](O)c1cncc(F)c1)[C@H]1CC[C@H](C(=O)O)CC1
2. CC12CC(C1)[C@@H]([C@@H](O)c1cncc(F)c1)N2

1. 50 to 75%
2. 50 to 75%

Count: 2. Required value per item: Emax at 10 µM.
1. CC(=O)N[C@H]1CC[C@@H](C[C@@H]2CC[C@H]([C@H](O)c3cccc(F)c3)N2)CC1
2. CS(=O)(=O)N(Cc1ccccc1)CC12CCC([C@@H](O)c3cccc(F)c3)(CC1)N2

1. 50 to 75%
2. 50 to 75%

====

Assign Emax at 10 µM to each entry below.
Test system: L6-myotubes
protocolText: Glucose uptake in differentiated L6-myotubes (Biological Example 2)
Format: cell-based
assaySetup: glucose uptake in differentiated L6-myotubes; compound at 10 μM, activity relative to isoproterenol at 10 μM; read-out: Biological example 2 (GU)

Recorded Emax at 10 µM, per entry:
smilesCode | Emax at 10 µM
O[C@@H](c1cncc(F)c1)C12CCC(COCc3ccc(F)cc3)(CC1)N2 | 25 to 50%
CO[C@H]1CC[C@H](CCCNC[C@H](O)c2cccc(F)c2)CC1 | 25 to 50%
CO[C@H]1CC[C@@H](CCC(C)(C)NC[C@H](O)c2cccc(F)c2)CC1 | > 75%

Query compound follows.
Observed Emax at 10 µM on L6-myotubes for `CCC[C@@H]1CCCC[C@H]([C@@H](O)c2cncc(F)c2)N1` , please.
< 25%

====

System: L6-myotubes
protocolText: Glucose uptake in differentiated L6-myotubes (Biological Example 2)
Type: cell-based
assaySetup: glucose uptake in differentiated L6-myotubes; compound at 10 μM, activity relative to isoproterenol at 10 μM; read-out: Biological example 2 (GU)
quantity: Emax at 10 µM

smilesCode | measuredOn | Emax at 10 µM
CC(C)(C[C@H]1CC[C@@H](S(N)(=O)=O)CC1)NC[C@H](O)c1cncc(F)c1 | L6-myotubes | > 75%
CO[C@H]1CC[C@H](C[C@H]2CC[C@H]([C@@H](O)c3cncc(F)c3)N2)CC1 | L6-myotubes | 25 to 50%
CC(=O)N[C@H]1CC[C@H](C(C)(C)NC[C@H](O)c2cncc(F)c2)CC1 | L6-myotubes | > 75%
CC(=O)N[C@H]1CC[C@H](C[C@@H]2CC[C@H]([C@H](O)c3cccc(F)c3)N2)CC1 | L6-myotubes | 50 to 75%
O=C(N[C@H]1CC[C@H](CNC[C@H](O)c2cncc(F)c2)CC1)c1ccccc1 | L6-myotubes | 50 to 75%
CC1(C)C[C@H]([C@@H](O)c2cncc(F)c2)N1 | L6-myotubes | 25 to 50%
O[C@@H](CNC[C@H]1CC[C@@H](OCc2ccccc2)CC1)c1cncc(F)c1 | L6-myotubes | > 75%
CC(C)(NC[C@H](O)c1cccc(F)c1)[C@H]1CC[C@@H](O)CC1 | L6-myotubes | 50 to 75%
O=C(N[C@H]1CC[C@H](CNC[C@H](O)c2cccc(F)c2)CC1)c1ccccc1 | L6-myotubes | > 75%
CC(C)(C[C@H]1CC[C@H](N)CC1)NC[C@H](O)c1cccc(C#N)n1 | L6-myotubes | > 75%

Count: 6. Required value per item: Emax at 10 µM.
1. CC(=O)N(Cc1ccccc1)[C@H]1CC[C@@H](C[C@@H]2CC[C@H]([C@@H](O)c3cccc(F)c3)N2)CC1
2. CC(C)(CC[C@H]1CC[C@H](NS(C)(=O)=O)CC1)NC[C@H](O)c1cncc(F)c1
3. O[C@@H](CNCCC[C@H]1CC[C@H](O)CC1)c1cccc(F)c1
4. CC1(C)C[C@@H]([C@@H](O)c2cncc(F)c2)N1
5. CC(C)(C[C@H]1CC[C@H](O)CC1)NC[C@H](O)c1cncc(F)c1
6. O[C@H](c1cccc(F)c1)C12CCC(COCc3ccc(Cl)cc3)(CC1)N2

1: < 25%; 2: 50 to 75%; 3: 50 to 75%; 4: 25 to 50%; 5: 50 to 75%; 6: > 75%
